biological target: Phosphatidylinositol 4,5-bisphosphate 3-kinase catalytic subunit alpha isoform (Homo sapiens); test: Inhibition of PIK3CA-mediated cell signaling in PTEN-deficient human U87MG cells assessed as inhibition of insulin-induced pAkt/PKB phosphorylation at Ser473 treated for 15 mins before insulin challenge measured after 5 mins by immunoblotting; format: cell-based, U-87MG ATCC
pIC50: −log10 of the molar value.
Property name: pIC50

| Chemical smiles | Value |
| --- | --- |
| COc1ccc2c(nc(C(F)F)n2-c2nc(N3CCOCC3)nc(N3CCOCC3)n2)c1O | 6.23 |

(I) FC(F)Oc1cccc2c1nc(C(F)F)n2-c1nc(N2CCOCC2)nc(N2CCOCC2)n1
(II) Oc1cccc2c1nc(C(F)F)n2-c1nc(N2CCOCC2)nc(N2CCOCC2)n1
(III) COc1cccc2c1nc(C(F)F)n2-c1nc(N2CCOCC2)nc(N2CCOCC2)n1
### Prompt Please produce an ascending ranking of these compounds based on pIC50. State the ranking by listing the labels in the requested order.
### Response I, III, II
(I: 6.37, III: 7.26, II: 8.89)

###

molecular target: Phosphatidylinositol 4,5-bisphosphate 3-kinase catalytic subunit alpha isoform (Homo sapiens, UniProt P42336, E545K); test: Inhibition of human PI3K p110alpha helical domain E545K mutant after 2 hrs by HTRF assay
Sequence (P42336 whole entry E545K, the tested form may be a part, canonical isoform): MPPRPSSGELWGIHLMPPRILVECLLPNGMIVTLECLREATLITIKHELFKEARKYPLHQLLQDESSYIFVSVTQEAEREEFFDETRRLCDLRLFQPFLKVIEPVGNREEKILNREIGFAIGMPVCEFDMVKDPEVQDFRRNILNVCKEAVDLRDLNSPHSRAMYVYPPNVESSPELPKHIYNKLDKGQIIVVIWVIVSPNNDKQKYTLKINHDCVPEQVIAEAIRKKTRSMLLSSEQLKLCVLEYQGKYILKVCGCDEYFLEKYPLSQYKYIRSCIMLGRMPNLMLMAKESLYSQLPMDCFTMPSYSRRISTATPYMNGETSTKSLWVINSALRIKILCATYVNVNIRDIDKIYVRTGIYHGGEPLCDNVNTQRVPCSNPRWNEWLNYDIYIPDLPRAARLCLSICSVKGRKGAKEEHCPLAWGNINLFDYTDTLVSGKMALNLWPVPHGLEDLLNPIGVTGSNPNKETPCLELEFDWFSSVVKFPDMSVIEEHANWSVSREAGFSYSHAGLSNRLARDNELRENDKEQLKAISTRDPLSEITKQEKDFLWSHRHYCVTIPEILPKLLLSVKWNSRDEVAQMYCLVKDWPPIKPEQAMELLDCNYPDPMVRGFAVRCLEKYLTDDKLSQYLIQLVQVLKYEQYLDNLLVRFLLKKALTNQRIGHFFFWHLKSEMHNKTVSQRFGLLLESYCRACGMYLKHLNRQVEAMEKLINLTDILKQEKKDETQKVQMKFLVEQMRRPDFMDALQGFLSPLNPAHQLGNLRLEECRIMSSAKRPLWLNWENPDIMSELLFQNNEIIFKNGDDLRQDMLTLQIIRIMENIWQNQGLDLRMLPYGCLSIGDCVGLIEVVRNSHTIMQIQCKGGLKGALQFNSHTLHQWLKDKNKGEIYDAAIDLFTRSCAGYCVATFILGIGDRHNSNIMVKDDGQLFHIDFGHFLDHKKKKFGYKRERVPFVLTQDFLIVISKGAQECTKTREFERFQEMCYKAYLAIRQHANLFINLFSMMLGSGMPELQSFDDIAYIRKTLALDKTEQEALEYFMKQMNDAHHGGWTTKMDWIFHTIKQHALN
pIC50: −log10 of the molar value.
Property name: pIC50

(1) COc1ccc2c(nc(C(F)F)n2-c2nc(N3CCOCC3)nc(N3CCOCC3)n2)c1O
(2) FC(F)Oc1cccc2c1nc(C(F)F)n2-c1nc(N2CCOCC2)nc(N2CCOCC2)n1
(3) Oc1cccc2c1nc(C(F)F)n2-c1nc(N2CCOCC2)nc(N2CCOCC2)n1
### Prompt List the 3 entries from lowest pIC50 to highest pIC50 value. # respond with the labels, arranged in the requested order
### Response 1, 2, 3
(1: 7.31, 2: 8.52, 3: 9.92)

###

Target: Phosphatidylinositol 4,5-bisphosphate 3-kinase catalytic subunit delta isoform (Homo sapiens, UniProt O00329)
Sequence (O00329 whole entry): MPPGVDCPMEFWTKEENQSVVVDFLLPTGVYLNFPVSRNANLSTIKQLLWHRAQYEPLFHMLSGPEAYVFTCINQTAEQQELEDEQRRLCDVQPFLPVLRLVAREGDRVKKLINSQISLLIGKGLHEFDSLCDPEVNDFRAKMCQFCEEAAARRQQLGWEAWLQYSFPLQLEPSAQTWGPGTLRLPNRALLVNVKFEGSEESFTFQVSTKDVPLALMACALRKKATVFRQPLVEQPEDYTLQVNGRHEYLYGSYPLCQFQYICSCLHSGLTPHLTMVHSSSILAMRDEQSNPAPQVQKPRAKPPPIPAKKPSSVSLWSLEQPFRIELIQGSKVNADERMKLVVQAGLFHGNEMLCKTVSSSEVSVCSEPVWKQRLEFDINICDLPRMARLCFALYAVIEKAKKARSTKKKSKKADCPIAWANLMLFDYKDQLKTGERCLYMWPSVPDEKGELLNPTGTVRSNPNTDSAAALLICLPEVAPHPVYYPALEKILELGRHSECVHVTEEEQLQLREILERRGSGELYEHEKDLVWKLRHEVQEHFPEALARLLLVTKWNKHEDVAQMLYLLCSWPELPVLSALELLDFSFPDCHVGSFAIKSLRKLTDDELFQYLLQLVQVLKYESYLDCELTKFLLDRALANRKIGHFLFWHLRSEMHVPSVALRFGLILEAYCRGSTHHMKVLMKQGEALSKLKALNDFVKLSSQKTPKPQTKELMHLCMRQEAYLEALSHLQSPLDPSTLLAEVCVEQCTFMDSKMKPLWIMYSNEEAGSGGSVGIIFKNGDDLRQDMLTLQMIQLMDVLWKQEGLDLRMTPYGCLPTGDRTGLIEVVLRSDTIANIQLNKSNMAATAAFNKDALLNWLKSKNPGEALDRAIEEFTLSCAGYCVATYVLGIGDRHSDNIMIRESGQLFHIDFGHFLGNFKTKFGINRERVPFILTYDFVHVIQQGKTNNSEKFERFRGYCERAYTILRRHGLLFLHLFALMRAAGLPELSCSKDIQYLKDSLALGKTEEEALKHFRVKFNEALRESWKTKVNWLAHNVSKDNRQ
Test: Inhibition of human His-tagged PI3K p110delta after 2 hrs by HTRF assay
Property name: IC50 (nM)

| Chemical smiles | IC50 / nM |
| --- | --- |
| FC(F)Oc1cccc2c1nc(C(F)F)n2-c1nc(N2CCOCC2)nc(N2CCOCC2)n1 | 34 |

(P) Oc1cccc2c1nc(C(F)F)n2-c1nc(N2CCOCC2)nc(N2CCOCC2)n1
(Q) COc1ccc2c(nc(C(F)F)n2-c2nc(N3CCOCC3)nc(N3CCOCC3)n2)c1O
### Prompt Just curious, which one has the larger IC50 reading, P or Q ? Which one? Tell me its label.
### Response Q
(Q: 2 nM, P: 0.65 nM)
